Assay: gradient 5% acetonitrile 3 min, to 50% in 2 min, to 85% in 15 min, held 3 min, 100 µL/min
Settings: column: Zorbax Extend-C18 2.1 x 50 mm; eluents: water / acetonitrile, 0.1% formic acid
outcome_measure: RP-LC retention time (s)

compound | RP-LC retention time [s]
Cc1cccc(NC(=O)Cn2c(=O)c3cc(C4CC4)nn3c3ncccc32)c1 | 789
CCOCCCNC(=O)C1CCCN(c2nnc(C)c3c(C)n(-c4ccc(OC)cc4)nc23)C1 (centres undefined) | 665
CC(C)n1cnnc1CC1CN(C(=O)Nc2ccccc2Cl)C1 | 640

(1) CCOc1ccc(-c2cc3c(=O)n(Cc4nc(-c5ccc(C)cc5)no4)ncn3n2)cc1
(2) COc1ccc(-c2nc(CN(c3ccccc3)S(=O)(=O)c3cccs3)c(C)o2)cc1
Out of 1 and 2 , name the one with the higher RP-LC retention time. Answer = label.
2
(2: 1130 s, 1: 784 s)
